Tested system: IDE (Homo sapiens)
Construct: made in house; host or cells: bacteria
Procedure text: biochemical
Condition details: initial test at 500 uM
Bridge positions count the residues as written; N and C are the ends. Peptide text beside a SMILES is read from it.

| Molecule | IC50 <500 uM? |
| --- | --- |
| CC(=O)N[C@@H](Cc1c[nH]c2ccccc12)C(=O)N[C@@H](CC(=O)O)C(=O)N[C@@H](Cc1ccccc1)C(=O)N[C@@H](CCCNC(=N)N)C(=O)N[C@@H](CCC(N)=O)C(=O)N[C@@H](Cc1c[nH]c2ccccc12)C(=O)N[C@@H](Cc1c[nH]c2ccccc12)C(=O)N[C@@H](CCC(N)=O)C(N)=O | YES |
| CC[C@H](C)[C@@H]1NC(=O)[C@H](CO)NC(=O)[C@H](Cc2c[nH]c3ccccc23)NC(=O)[C@H](Cc2c[nH]c3ccccc23)NC(=O)[C@H](CO)NC(=O)[C@@H](NC(=O)[C@H](C)N)CSSC[C@@H](C(=O)NCC(=O)O)NC(=O)[C@H](CC(C)C)NC(=O)[C@H](Cc2c[nH]cn2)NC1=O [C7C-1] (H-ACSWWSIHLCG-OH; disulfide 2-10 (inferred)) | YES |
| CC(C)C[C@H](NC(=O)[C@H](CO)NC(=O)[C@@H](N)CCC(N)=O)C(=O)N1CCC[C@H]1C(=O)N[C@@H](Cc1c[nH]c2ccccc12)C(=O)N[C@H]1CSSC[C@@H](C(=O)N[C@H](C(=O)N[C@H](C(=O)O)[C@@H](C)O)C(C)C)NC(=O)[C@H](Cc2c[nH]cn2)NC(=O)[C@@H]2CCCN2C(=O)[C@H](Cc2ccc(O)cc2)NC1=O [P12-3] (H-QSLPWCYPHCVT-OH; disulfide 6-10 (inferred)) | YES |

---

Tested system: IDE (Homo sapiens, UniProt P14735)
Construct: made in house; host or cells: bacteria
Sequence (P14735 whole entry): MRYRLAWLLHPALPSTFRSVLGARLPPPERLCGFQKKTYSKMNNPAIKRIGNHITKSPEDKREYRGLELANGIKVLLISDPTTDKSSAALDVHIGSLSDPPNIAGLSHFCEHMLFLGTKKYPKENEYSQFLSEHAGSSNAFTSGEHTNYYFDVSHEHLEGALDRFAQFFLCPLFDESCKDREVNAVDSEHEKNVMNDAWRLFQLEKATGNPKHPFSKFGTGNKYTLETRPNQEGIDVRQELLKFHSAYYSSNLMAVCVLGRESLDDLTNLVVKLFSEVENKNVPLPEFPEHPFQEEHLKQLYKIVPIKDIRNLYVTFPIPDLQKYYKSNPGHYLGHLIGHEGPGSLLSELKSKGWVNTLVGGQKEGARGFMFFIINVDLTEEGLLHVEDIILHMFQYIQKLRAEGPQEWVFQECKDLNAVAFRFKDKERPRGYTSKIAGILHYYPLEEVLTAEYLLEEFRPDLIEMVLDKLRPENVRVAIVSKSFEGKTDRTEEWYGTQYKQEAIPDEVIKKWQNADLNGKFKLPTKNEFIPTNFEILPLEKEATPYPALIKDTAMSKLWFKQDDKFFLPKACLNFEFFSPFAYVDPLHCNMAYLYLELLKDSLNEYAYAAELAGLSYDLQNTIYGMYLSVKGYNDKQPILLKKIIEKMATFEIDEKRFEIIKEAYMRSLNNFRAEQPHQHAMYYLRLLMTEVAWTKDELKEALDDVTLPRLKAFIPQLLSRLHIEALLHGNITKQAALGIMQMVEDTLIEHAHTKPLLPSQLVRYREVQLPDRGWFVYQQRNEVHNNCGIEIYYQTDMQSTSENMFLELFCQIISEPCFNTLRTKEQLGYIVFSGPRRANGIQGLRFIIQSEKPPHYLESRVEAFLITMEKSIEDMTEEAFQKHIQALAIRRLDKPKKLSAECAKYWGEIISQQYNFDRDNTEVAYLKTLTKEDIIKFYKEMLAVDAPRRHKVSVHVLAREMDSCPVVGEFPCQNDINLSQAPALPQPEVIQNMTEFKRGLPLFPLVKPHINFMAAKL
Procedure text: biochemical
Condition details: initial test; percent of initial velocity relative to DMSO-only controls; individual replicates; read-out: Percent activity at 500 uM, Replicate 1-4
Description: The six selected peptide sequences (C7C-1, C7C-2, 12–1, 12–2, 12–3 and 12–4) were synthesized, together with a variety of modifications, yielding a total of 25 peptides (Table 1). […] IDE activity was quantified by monitoring the degradation of Mca-[…](Dnp) (FRET1, 5 μM), fluoresceinated and biotinylated amyloid ß-protein (FAßB; 500 nM) or recombinant human insulin (50 nM) in PBS supplemented with 0.05% BSA. […]
Ends that are not written are not given here.
Experimental readout: remaining activity at 500 µM (%)

| Substance | Tested system | Experimental readout | Assay value |
| --- | --- | --- | --- |
| LNFPMPSRPHSS-NH2 [P12-2A] | IDE (Homo sapiens, UniProt P14735) | remaining activity at 500 µM | 31.8 |
| WSPISGKF-NH2 [P12-4B] | IDE (Homo sapiens, UniProt P14735) | remaining activity at 500 µM | 76.6 |
| Ac-SGKFFQRF [P12-4C] | IDE (Homo sapiens, UniProt P14735) | remaining activity at 500 µM | 59.7 |
| Ac-PISGKFFQ-NH2 [P12-4D] | IDE (Homo sapiens, UniProt P14735) | remaining activity at 500 µM | 74.3 |
| Ac-FRQWWQPS [P12-1C] | IDE (Homo sapiens, UniProt P14735) | remaining activity at 500 µM | 12.6 |
| LNFPMPSR-NH2 [P12-2B] | IDE (Homo sapiens, UniProt P14735) | remaining activity at 500 µM | 81.3 |
| WSPISGKFFQRF [P12-4] | IDE (Homo sapiens, UniProt P14735) | remaining activity at 500 µM | 8.6 |
| QSLPWCYP-NH2 [P12-3B] | IDE (Homo sapiens, UniProt P14735) | remaining activity at 500 µM | 13.7 |

---

Tested system: IDE (Homo sapiens)
Construct: made in house; host or cells: bacteria
Procedure text: Vulnerability of peptides to degradation by IDE: 0 vs 4 h pre-incubation, then FRET1 assay
Type: biochemical
Condition details: 4 h, 4-hr incubation; Cmpd 7.8125 uM; relative to DMSO-only controls; individual runs; read-out: Percent Activity (normalized initial velocity of FRET1 hydrolysis)
Ends that are not written are not given here.
Experimental readout: remaining activity at 7.8125 µM (%)

| Substance | Tested system | Unit abbrev | Assay value |
| --- | --- | --- | --- |
| WSPISGKFFQRF-NH2 [P12-4A] | IDE (Homo sapiens) | % | 83.2 |
| VHWDFRQWWQPS [P12-1] | IDE (Homo sapiens) | % | 73.2 |
| VHWDFRQW-NH2 [P12-1B] | IDE (Homo sapiens) | % | 70.1 |
| Ac-FRQWWQPS [P12-1C] | IDE (Homo sapiens) | % | 104 |
| QSLPWCYP-NH2 [P12-3B] | IDE (Homo sapiens) | % | 97 |
| WSPISGKFFQRF [P12-4] | IDE (Homo sapiens) | % | 80.4 |
| VHWDFRQWWQPS-NH2 [P12-1A] | IDE (Homo sapiens) | % | 50.1 |

---

Tested system: IDE (Homo sapiens, UniProt P14735)
Construct: made in house; host or cells: bacteria
Procedure text: Vulnerability of peptides to degradation by IDE: 0 vs 4 h pre-incubation, then FRET1 assay
Format: biochemical
Condition details: 4 h, 4-hr incubation; Cmpd 500 uM; relative to DMSO-only controls; individual runs; read-out: Percent Activity (normalized initial velocity of FRET1 hydrolysis)
Method: IDE activity was quantified by monitoring the degradation of Mca-[…](Dnp) (FRET1, 5 μM), fluoresceinated and biotinylated amyloid ß-protein (FAßB; 500 nM) or recombinant human insulin (50 nM) in PBS supplemented with 0.05% BSA. […] For quantitation of insulin degradation in primary murine skin fibroblasts, cells (1 x 10^5/well) were plated in 96-well plates and maintained in DMEM supplemented with 10% fetal bovine serum (FBS), 2mM glutamine, penicillin and streptomycin. […]
Ends that are not written are not given here.

| Substance | Unit abbrev | remaining activity at 500 µM |
| --- | --- | --- |
| VHWDFRQW-NH2 [P12-1B] | % | 9.02 |
| VHWDFRQWWQPS-NH2 [P12-1A] | % | 21.4 |
| QSLPWCYP-NH2 [P12-3B] | % | 11.2 |
| WSPISGKFFQRF-NH2 [P12-4A] | % | 27.1 |
| WSPISGKFFQRF [P12-4] | % | 30.5 |
| VHWDFRQWWQPS [P12-1] | % | 0.247 |
| Ac-FRQWWQPS [P12-1C] | % | 2.79 |

---

Tested system: IDE (Homo sapiens, UniProt P14735)
Construct: made in house; host or cells: bacteria
Procedure text: Vulnerability of peptides to degradation by IDE: 0 vs 4 h pre-incubation, then FRET1 assay
Assay type: biochemical
Condition details: FRET1 assay; 4-hr incubation; mean of 2 replicates; read-out: IC50s, Mean
Ends that are not written are not given here.
Measured IC50 accompanies every entry in the list below.

| Substance | IC50 [µM] |
| --- | --- |
| VHWDFRQW-NH2 [P12-1B] | 197 |
| VHWDFRQWWQPS-NH2 [P12-1A] | 93.3 |
| Ac-FRQWWQPS [P12-1C] | 491 |
| VHWDFRQWWQPS [P12-1] | 157 |
| QSLPWCYP-NH2 [P12-3B] | 45.9 |
| WSPISGKFFQRF [P12-4] | 389 |
| WSPISGKFFQRF-NH2 [P12-4A] | 65.2 |

---

Tested system: IDE (Homo sapiens)
Construct: made in house; host or cells: bacteria
Procedure text: Vulnerability of peptides to degradation by IDE: 0 vs 4 h pre-incubation, then FRET1 assay
Format: biochemical
Condition details: 4 h, 4-hr incubation; Cmpd 1.95312 uM; relative to DMSO-only controls; individual runs; read-out: Percent Activity (normalized initial velocity of FRET1 hydrolysis)
Ends that are not written are not given here.
remaining activity at 1.95312 µM values for the substances below.

| Substance | remaining activity at 1.95312 µM / % |
| --- | --- |
| QSLPWCYP-NH2 [P12-3B] | 101 |
| WSPISGKFFQRF-NH2 [P12-4A] | 85.3 |
| WSPISGKFFQRF [P12-4] | 86.6 |
| VHWDFRQWWQPS [P12-1] | 99 |
| Ac-FRQWWQPS [P12-1C] | 105 |
| VHWDFRQWWQPS-NH2 [P12-1A] | 59.1 |
| VHWDFRQW-NH2 [P12-1B] | 80.5 |
